- Test system: MS751 (Cervical Carcinoma);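 further: after 72 h of two-drug dosing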
- Assay explanation: Bliss excess, mean over the matrix (fraction); higher = more synergy
Returns one of 1.0 or 0.0; 1.0 when Bliss excess is >= 0.002.

Cc1cc2ncnn2cc1Nc1ncc2c(n1)n(C1CCOCC1)c(=O)n2C [AZD7648] + O=C(c1cc(Cc2n[nH]c(=O)c3ccccc23)ccc1F)N1CCN(C(=O)C2CC2)CC1 [Olaparib] (first compound max 10 µM, 7x7, partner max 10 µM)	0.0
CC(=O)c1c(C)c2cnc(Nc3ccc(N4CCNCC4)cn3)nc2n(C2CCCC2)c1=O [Palbociclib] + CN(CC[C@H](CSC1=CC=CC=C1)NC2=C(C=C(C=C2)S(=O)(=O)NC(=O)C3=CC=C(C=C3)N4CCC(CC4)[C@H](C5=CC=CC=C5C6=CC=C(C=C6)Cl)O)S(=O)(=O)C(F)(F)F)CCO [AZD4320] (first compound max 10 µM, 7x7, partner max 1 µM)	0.0
CN(CCO)CC[C@H](CSc1ccccc1)Nc1ccc(S(=O)(=O)NC(=O)c2ccc(N3CCC([C@@H](O)c4ccccc4-c4ccc(Cl)cc4)CC3)cc2)cc1S(=O)(=O)C(F)(F)F [AZD4320] + Cn1cnc2c(F)c(Nc3ccc(Br)cc3Cl)c(C(=O)NOCCO)cc21 [Selumetinib] (first compound max 1 µM, 7x7, partner max 3 µM)	1.0

Is reported Bliss excess greater than or equal to 0.002 here: CCN(CCO)CCCOc1ccc2c(Nc3cc(CC(=O)Nc4cccc(F)c4)[nH]n3)ncnc2c1 [AZD2811] + C[C@@H]1COCCN1C2=NC(=NC(=C2)C3(CC3)[S@](=N)(=O)C)C4=C5C=CNC5=NC=C4 [AZD6738] (first compound max 1 µM, 7x7, partner max 10 µM)
1.0

Then what about the compound CC1(C)CCC(CN2CCN(c3ccc(C(=O)NS(=O)(=O)c4ccc(NCC5CCOCC5)c([N+](=O)[O-])c4)c(Oc4cnc5[nH]ccc5c4)c3)CC2)=C(c2ccc(Cl)cc2)C1 [Venetoclax] + CCN(CCO)CCCOc1ccc2c(Nc3cc(CC(=O)Nc4cccc(F)c4)[nH]n3)ncnc2c1 [AZD2811] (first compound max 1 µM, 7x7, partner max 1 µM) ?
1.0

Then what about the compound C[C@@H](c1ccc2nccn2c1)n1nnc2ncc(-c3cnn(C)c3)nc21 [Savolitinib] + CC1(C)CCC(CN2CCN(c3ccc(C(=O)NS(=O)(=O)c4ccc(NCC5CCOCC5)c([N+](=O)[O-])c4)c(Oc4cnc5[nH]ccc5c4)c3)CC2)=C(c2ccc(Cl)cc2)C1 [Venetoclax] (first compound max 1 µM, 7x7, partner max 1 µM) ?
0.0

----------
- Test system: HDQ-P1 (Breast Carcinoma)
- Assay explanation: combination Emax (second highest fraction inhibited in the dose matrix, 72 h); higher = more inhibition; extreme values may be limits of the assay
Measured combination Emax values are reported for all entries that follow.
Format: numeric value only, no unit, no commentary.

COc1cccc(OCCCN)c1-c1cc(Nc2cnc(C#N)cn2)n[nH]1 [Prexasertib] + C=CCn1c(=O)c2cnc(Nc3ccc(N4CCN(C)CC4)cc3)nc2n1-c1cccc(C(C)(C)O)n1 [AZD1775] (first compound max 1 µM, partner max 1 µM)	0.856

For HDQ-P1 (Breast Carcinoma), provide combination Emax of C[C@@H](c1ccc2nccn2c1)n1nnc2ncc(-c3cnn(C)c3)nc21 [Savolitinib] + Cc1c2c(nn1C)CSCc1cc(n(C)n1)CSc1cc(c3ccccc3c1)OCCCc1c(C(=O)O)n(C)c3c-2c(Cl)ccc13 [AZD5991] (first compound max 1 µM, 7x7, partner max 1 µM) please.
0.2

Then what about the compound NC1(C(=O)N[C@@H](CCO)c2ccc(Cl)cc2)CCN(c2ncnc3[nH]ccc23)CC1 [Capivasertib] + COc1nnc2ccc(N3CCC(c4ccc(OCCN5CCN(C)C(=O)[C@H]5C)cc4)CC3)nn12 [AZD5153] (first compound max 10 µM, 7x7, partner max 1 µM) ?
0.416

Then what about the compound C=CCn1c(=O)c2cnc(Nc3ccc(N4CCN(C)CC4)cc3)nc2n1-c1cccc(C(C)(C)O)n1 [AZD1775] + C1CN(CCC1(C(=O)N[C@@H](CCO)C2=CC=C(C=C2)Cl)N)C3=NC=NC4=C3C=CN4 [Capivasertib] (first compound max 3 µM, partner max 3 µM) ?
0.856

Then what about the compound C[C@@H](c1ccc2nccn2c1)n1nnc2ncc(-c3cnn(C)c3)nc21 [Savolitinib] + CC1(C)CCC(CN2CCN(c3ccc(C(=O)NS(=O)(=O)c4ccc(NCC5CCOCC5)c([N+](=O)[O-])c4)c(Oc4cnc5[nH]ccc5c4)c3)CC2)=C(c2ccc(Cl)cc2)C1 [Venetoclax] (first compound max 1 µM, 7x7, partner max 1 µM) ?
0.117

Then what about the compound Cc1c2c(nn1C)CSCc1cc(n(C)n1)CSc1cc(c3ccccc3c1)OCCCc1c(C(=O)O)n(C)c3c-2c(Cl)ccc13 [AZD5991] + C[C@@H]1COCCN1C2=NC(=NC(=C2)C3(CC3)[S@](=N)(=O)C)C4=C5C=CNC5=NC=C4 [AZD6738] (first compound max 1 µM, 7x7, partner max 10 µM) ?
0.387

Then what about the compound CN(CCO)CC[C@H](CSc1ccccc1)Nc1ccc(S(=O)(=O)NC(=O)c2ccc(N3CCC([C@@H](O)c4ccccc4-c4ccc(Cl)cc4)CC3)cc2)cc1S(=O)(=O)C(F)(F)F [AZD4320] + Cn1cnc2c(F)c(Nc3ccc(Br)cc3Cl)c(C(=O)NOCCO)cc21 [Selumetinib] (first compound max 1 µM, 7x7, partner max 3 µM) ?
0.771

Then what about the compound CN(CCO)CC[C@H](CSc1ccccc1)Nc1ccc(S(=O)(=O)NC(=O)c2ccc(N3CCC([C@@H](O)c4ccccc4-c4ccc(Cl)cc4)CC3)cc2)cc1S(=O)(=O)C(F)(F)F [AZD4320] + CN(C)CCCOc1ccc(-c2ccc3ncc4c(c3c2)n(C2CCOCC2)c(=O)n4C)cn1 [AZD0156] (first compound max 1 µM, 7x7, partner max 1 µM) ?
0.465

Then what about the compound Cc1c2c(nn1C)CSCc1cc(n(C)n1)CSc1cc(c3ccccc3c1)OCCCc1c(C(=O)O)n(C)c3c-2c(Cl)ccc13 [AZD5991] + Cn1cnc2c(F)c(Nc3ccc(Br)cc3Cl)c(C(=O)NOCCO)cc21 [Selumetinib] (first compound max 1 µM, 7x7, partner max 3 µM) ?
0.211

Then what about the compound C=CCn1c(=O)c2cnc(Nc3ccc(N4CCN(C)CC4)cc3)nc2n1-c1cccc(C(C)(C)O)n1 [AZD1775] + O=C(c1cc(Cc2n[nH]c(=O)c3ccccc23)ccc1F)N1CCN(C(=O)C2CC2)CC1 [Olaparib] (first compound max 1 µM, partner max 10 µM) ?
0.517

Then what about the compound CC(=O)c1c(C)c2cnc(Nc3ccc(N4CCNCC4)cn3)nc2n(C2CCCC2)c1=O [Palbociclib] + CC1(C)CCC(CN2CCN(c3ccc(C(=O)NS(=O)(=O)c4ccc(NCC5CCOCC5)c([N+](=O)[O-])c4)c(Oc4cnc5[nH]ccc5c4)c3)CC2)=C(c2ccc(Cl)cc2)C1 [Venetoclax] (first compound max 10 µM, 7x7, partner max 1 µM) ?
0.109

Then what about the compound C[C@@H](c1ccc2nccn2c1)n1nnc2ncc(-c3cnn(C)c3)nc21 [Savolitinib] + CN(CC[C@H](CSC1=CC=CC=C1)NC2=C(C=C(C=C2)S(=O)(=O)NC(=O)C3=CC=C(C=C3)N4CCC(CC4)[C@H](C5=CC=CC=C5C6=CC=C(C=C6)Cl)O)S(=O)(=O)C(F)(F)F)CCO [AZD4320] (first compound max 1 µM, 7x7, partner max 1 µM) ?
0.591

Then what about the compound COc1nnc2ccc(N3CCC(c4ccc(OCCN5CCN(C)C(=O)[C@H]5C)cc4)CC3)nn12 [AZD5153] + C=CCn1c(=O)c2cnc(Nc3ccc(N4CCN(C)CC4)cc3)nc2n1-c1cccc(C(C)(C)O)n1 [AZD1775] (first compound max 1 µM, partner max 1 µM) ?
0.523
